The compounds listed here are annotated with their pEC50.
# experimentalSystem: Sphingosine 1-phosphate receptor 1 (Homo sapiens)
# Sequence (P21453 whole entry): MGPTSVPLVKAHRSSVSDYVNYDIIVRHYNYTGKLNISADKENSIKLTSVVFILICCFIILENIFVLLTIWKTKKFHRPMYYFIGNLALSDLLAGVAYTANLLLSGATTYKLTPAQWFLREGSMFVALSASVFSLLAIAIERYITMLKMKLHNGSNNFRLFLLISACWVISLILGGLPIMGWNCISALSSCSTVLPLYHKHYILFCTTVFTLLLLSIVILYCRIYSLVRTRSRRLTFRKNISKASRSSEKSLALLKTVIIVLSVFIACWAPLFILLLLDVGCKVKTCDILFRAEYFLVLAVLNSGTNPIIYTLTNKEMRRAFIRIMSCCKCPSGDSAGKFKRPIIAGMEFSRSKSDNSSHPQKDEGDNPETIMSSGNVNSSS
# testSummary: Agonist activity at human S1P1 receptor expressed in human EDG1-bla U2OS cells after 18 hrs by beta-arrestin recruitment assay
pEC50: −log10 of the molar value.
attributeMeasured: pEC50

- N[C@@H](CO)COc1cc(Cl)c(-c2nc(N3CCN(C(=O)C4CCCC4)CC3)no2)cc1F: 8.77
- N[C@H](CO)COc1cc(Cl)c(-c2nc(N3CCN(C(=O)C4CCCC4)CC3)no2)cc1F: 6.38
- CC1(C)CC(C(=O)N2CCN(c3noc(-c4cc(F)c(OC[C@H](O)CO)cc4Cl)n3)CC2)C1: 5.92
- CC1(C)CC(C(=O)N2CCN(c3noc(-c4cc(F)c(OC[C@@H](N)CO)cc4Cl)n3)CC2)C1: 8.51
- CCC(C)(C)C(=O)N1CCN(c2noc(-c3ccccc3OC)n2)CC1: 5.44
- N[C@H](CO)COc1cc(Cl)c(-c2nc(N3CCN(C(=O)C4CCC4)CC3)no2)cc1F: 5.89
- CC1(C)CC(C(=O)N2CCN(c3noc(-c4cc(F)c(OCCC(=O)O)cc4Cl)n3)CC2)C1: 5.57
- N[C@@H](CO)COc1c(Cl)cc(-c2nc(N3CCN(C(=O)C4CCCC4)CC3)no2)cc1Cl: 5.80
- C[C@H](O)COc1cc(Cl)c(-c2nc(N3CCN(C(=O)C4CC(C)(C)C4)CC3)no2)cc1F: 5.96
- O=C(O)CCOc1cc(Cl)c(-c2nc(N3CCN(C(=O)C4CCCC4)CC3)no2)cc1F: 6.62
- O=C(O)C1CN(Cc2cc(Cl)c(-c3nc(N4CCN(C(=O)C5CCCC5)CC4)no3)cc2F)C1: 5.68
- CC1(C)CC(C(=O)N2CCN(c3noc(-c4cc(F)c(OC[C@@H](O)CO)cc4Cl)n3)CC2)C1: 5.96
- CC1(C)CC(C(=O)N2CCN(c3noc(-c4cc(F)c(OCCO)cc4Cl)n3)CC2)C1: 6.04
- CC1(C)CC(C(=O)N2CCN(c3noc(-c4cc(F)c(OCCCO)cc4Cl)n3)CC2)C1: 5.96
- N[C@@H](CO)COc1cc(Cl)c(-c2nnc(N3CCN(C(=O)c4cccc(Cl)c4)CC3)s2)cc1F: 8.64
- N[C@@H](CO)COc1cc(Cl)c(-c2noc(C3CCN(C(=O)C4CCCC4)CC3)n2)cc1F: 7.35
